# Tested on: LoVo
# Method notes: Antiproliferative activity against human LoVo cells after 72 hrs by MTT assay
# Assay type: functional, cell-based
# Recorded conditions: Homo sapiens, LoVo, 72 h
Consider the following compounds; for each one, report its pIC50.
// field semantics: pIC50 = negative decimal log of concentration (mol/L)

For Cn1cc(-c2nn(Cc3ccc(C(=O)NC4CCCCC4)cc3)c(=O)c3ccccc23)cn1 , what is its reported pIC50? 5.59

For Cc1noc(C)c1-c1nn(Cc2ccc(C(=O)N3CCOCC3)cc2)c(=O)c2ccccc12 , what is its reported pIC50? 4.07

For Cn1cc(-c2nn(Cc3ccc(C(=O)NC4CCCC4)cc3)c(=O)c3ccccc23)cn1 , what is its reported pIC50? 4.63

---

# Tested on: LoVo
# Method notes: Antiproliferative activity against human LoVo cells after 72 hrs by MTT assay
# Type: functional, cell-based
# Recorded conditions: Homo sapiens, LoVo, 72 h
Consider the following compounds; for each one, report its IC50.
Number in µM, nothing else.

For Cc1cc(Nc2nn(Cc3ccccc3)c(=O)c3ccccc23)n[nH]1 , what is its reported IC50? 22.2

For Cn1cc(-c2nn(Cc3ccc(C(=O)N4CCOCC4)cc3)c(=O)c3ccccc23)cn1 , what is its reported IC50? 52.3

For O=C(NC1CCCCC1)c1ccc(Cn2nc(Nc3ccc(C(=O)N4CCOCC4)cc3)c3ccccc3c2=O)cc1 , what is its reported IC50? 54.5

---

In what follows, each item is paired with its pIC50 for Aurora kinase A (Homo sapiens, UniProt O14965).
// field semantics: pIC50 = negative decimal log of concentration (mol/L)

What is its pIC50 for Aurora kinase A (Homo sapiens, UniProt O14965)? Entry: Cn1cc(Nc2nn(Cc3ccc(C(=O)NC4CCCCC4)cc3)c(=O)c3ccccc23)cn1 6.84

What is its pIC50 for Aurora kinase A (Homo sapiens, UniProt O14965)? Entry: Cn1cc(-c2nn(Cc3ccc(C(=O)NC4CCCCC4)cc3)c(=O)c3ccccc23)cn1 6.93

What is its pIC50 for Aurora kinase A (Homo sapiens, UniProt O14965)? Entry: CN1CCC(NC(=O)c2ccc(Cn3nc(-c4cnn(C)c4)c4ccccc4c3=O)cc2)CC1 6.74

What is its pIC50 for Aurora kinase A (Homo sapiens, UniProt O14965)? Entry: Cn1cc(-c2nn(Cc3ccc(C(=O)NC4CC(C)(C)N([O])C(C)(C)C4)cc3)c(=O)c3ccccc23)cn1 6.77

---

# System: A549
# Method notes: Antiproliferative activity against human A549 cells after 72 hrs by MTT assay
# Type: functional, cell-based
# Recorded conditions: a549
Measured metric: IC50 (µM)
Number in µM, nothing else.

For Cc1noc(C)c1-c1nn(Cc2ccc(C(=O)NC3CC(C)(C)N([O])C(C)(C)C3)cc2)c(=O)c2ccccc12 , what is its reported IC50? 84.3

---

# Tested on: LoVo
# Method notes: Antiproliferative activity against human LoVo cells after 72 hrs by MTT assay
# Type: functional, cell-based
# Recorded conditions: Homo sapiens, LoVo, 72 h
Measured metric: pIC50
// field semantics: pIC50 = negative decimal log of concentration (mol/L)

What is its pIC50 for LoVo? Entry: Cn1cc(-c2nn(Cc3ccc(C(=O)NC4CC4)cc3)c(=O)c3ccccc23)cn1 4.32

What is its pIC50 for LoVo? Entry: Cn1cc(-c2nn(Cc3ccc(C(=O)N4CCCCC4)cc3)c(=O)c3ccccc23)cn1 4.11

What is its pIC50 for LoVo? Entry: Cn1cc(-c2nn(Cc3ccc(C(=O)NC4CC(C)(C)N([O])C(C)(C)C4)cc3)c(=O)c3ccccc23)cn1 4.30

What is its pIC50 for LoVo? Entry: Cc1noc(C)c1-c1nn(Cc2ccc(C(=O)NC3CCCCC3)cc2)c(=O)c2ccccc12 4.09

What is its pIC50 for LoVo? Entry: O=C(Nc1ccccc1Cl)c1ccc(Nc2nn(Cc3ccc(C(=O)NC4CCCCC4)cc3)c(=O)c3ccccc23)cc1 4.10

What is its pIC50 for LoVo? Entry: Cn1cc(Nc2nn(Cc3ccc(C(=O)NC4CCCCC4)cc3)c(=O)c3ccccc23)cn1 5.28

What is its pIC50 for LoVo? Entry: CN1CCC(NC(=O)c2ccc(Cn3nc(-c4cnn(C)c4)c4ccccc4c3=O)cc2)CC1 4.08
